Source: patent US12077503B2

System: giant foxtail (Setaria faberii)
test-description: Test A preemergence
Assay type: in vivo
condition-details: 500 g ai/ha, preemergence; 0 to 100 scale, 0 = no effect, 100 = complete control
quantity: Plant response rating, Foxtail, Giant

compound	experimental-system	obs-value
O=C1NCC(c2ccc(F)cc2F)C1C(=O)Nc1ccccc1F (stereo not drawn)	giant foxtail (Setaria faberii)	90
Cc1cccc(C2CN(C)C(=O)C2C(=O)Nc2ccccc2S(C)(=O)=O)c1 (stereo not drawn)	giant foxtail (Setaria faberii)	100
O=C1NCC(c2cccc(C(F)(F)F)c2)C1C(=O)Nc1ccc(F)cc1Cl (racemic)	giant foxtail (Setaria faberii)	90

---

System: pigweed (Amaranthus retroflexus)
test-description: Test A postemergence
Assay type: in vivo
condition-details: Amaranthus retroflexus, post-emergence, 240 h, 125 g ai/ha, Postemergence, visual rating about 10 d after treatment; read-out: Pigweed plant response rating (0 to 100 scale)

compound	experimental-system	pest or weed control at 125 g/ha, %
O=C(Nc1cccc(F)c1F)[C@H]1C(=O)N(CC(F)F)C[C@@H]1c1cccc(C(F)(F)F)c1	pigweed (Amaranthus retroflexus)	0
CN1C[C@H](c2ccc(C(F)(F)F)cc2)[C@@H](C(=O)Nc2ccc(F)nc2F)C1=O	pigweed (Amaranthus retroflexus)	90
O=C1NCC(c2ccccc2)C1C(=O)Nc1cccnc1 (stereo not shown)	pigweed (Amaranthus retroflexus)	0
Cc1ccc([C@H]2CN(C)C(=O)[C@@H]2C(=O)Nc2cccc(F)n2)cc1	pigweed (Amaranthus retroflexus)	0

---

Test system: rice (Oryra sativa)
test-description: Test B flooded paddy test
Type: in vivo
condition-details: Flood, 500 g ai/ha; 0 to 100 scale where 0 is no effect and 100 is complete control; 13 to 15 d
Plant response rating, Rice listing for selected molecules.

molecule	experimental-system	Plant response rating, Rice
Cc1cccc(NC(=O)C2C(=O)NCC2c2ccc(F)c(F)c2)c1F (stereo not shown) [Compound 409]	rice (Oryra sativa)	30
Cc1cc(NC(=O)C2C(=O)NCC2c2ccc(F)c(F)c2)ccc1C(F)(F)F (stereo not shown) [Compound 414]	rice (Oryra sativa)	0
O=C1NCC(c2cccc(OC(F)F)c2)C1C(=O)Nc1ccccc1OC(F)F (stereo not shown) [Compound 427]	rice (Oryra sativa)	0
O=C1NCC(c2ccc(Oc3ccccc3)cc2)C1C(=O)Nc1ccccc1F (racemic) [Compound 534]	rice (Oryra sativa)	20

---

Barnyardgrass plant response rating listing for selected compounds.
Tested on: barnyardgrass (Echinochloa crus-galli)
test-description: Test A postemergence
Assay type: in vivo
condition-details: 125 g ai/ha, postemergence; visual injury rating on 0 to 100 scale (0 no effect, 100 complete control), approx. 10 d
quantity: Barnyardgrass plant response rating

compound	obs-value
C=C(C)CN1CC(c2cccc(C(F)(F)F)c2)C(C(=O)Nc2cccc(F)c2F)C1=O (centres unmarked)	0
O=C1NCC(c2cc(F)cc(C(F)(F)F)c2)C1C(=O)Nc1cccc(F)c1F (centres unmarked)	90
CC(=O)Oc1cccc(C2CNC(=O)C2C(=O)Nc2cccc(F)c2F)c1 (centres unmarked)	20
O=C1NCC(c2cccc(C#Cc3ccccc3)c2)C1C(=O)Nc1cccc(F)c1F (centres unmarked)	0
C=C(C)CN1CC(c2cccc(C(F)(F)F)c2)C(C(=O)Nc2ccccc2F)C1=O (centres unmarked)	0
CN1CC(c2cccc(OC(F)(F)C(F)F)c2)C(C(=O)Nc2ccc(F)c(F)c2F)C1=O (centres unmarked)	90
CN1CC(c2ccc(F)cc2)C(C(=O)Nc2ccccc2F)C1=O (centres unmarked)	90
O=C1NCC(c2cccc(F)c2F)C1C(=O)Nc1ccccc1F (centres unmarked)	30
